Assign IC50, reporter cell assay to each entry below.
molecular target: hGARP-proTGFβ1 (human, UniProt Q14392 18-627; P01137 30-390, limits assumed); assay: cell-based or functional assay
Sequence (Q14392 18-627 limits assumed, chain 1 of 2): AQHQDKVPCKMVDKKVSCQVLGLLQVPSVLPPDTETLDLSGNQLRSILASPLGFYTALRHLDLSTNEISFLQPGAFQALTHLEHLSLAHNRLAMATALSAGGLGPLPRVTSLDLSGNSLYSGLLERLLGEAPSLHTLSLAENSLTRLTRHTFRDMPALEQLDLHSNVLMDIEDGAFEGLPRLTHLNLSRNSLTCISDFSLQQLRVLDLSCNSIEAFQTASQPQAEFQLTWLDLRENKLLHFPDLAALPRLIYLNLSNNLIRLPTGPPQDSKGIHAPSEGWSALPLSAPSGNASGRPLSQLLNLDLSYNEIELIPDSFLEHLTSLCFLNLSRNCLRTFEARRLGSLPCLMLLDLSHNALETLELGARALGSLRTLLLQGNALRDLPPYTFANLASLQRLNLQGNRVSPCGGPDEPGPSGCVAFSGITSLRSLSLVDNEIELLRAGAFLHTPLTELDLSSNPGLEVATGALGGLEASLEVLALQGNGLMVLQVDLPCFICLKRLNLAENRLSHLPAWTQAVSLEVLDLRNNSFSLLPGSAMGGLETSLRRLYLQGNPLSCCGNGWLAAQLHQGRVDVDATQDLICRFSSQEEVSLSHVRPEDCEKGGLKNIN
Sequence (P01137 30-390 limits assumed, chain 2 of 2): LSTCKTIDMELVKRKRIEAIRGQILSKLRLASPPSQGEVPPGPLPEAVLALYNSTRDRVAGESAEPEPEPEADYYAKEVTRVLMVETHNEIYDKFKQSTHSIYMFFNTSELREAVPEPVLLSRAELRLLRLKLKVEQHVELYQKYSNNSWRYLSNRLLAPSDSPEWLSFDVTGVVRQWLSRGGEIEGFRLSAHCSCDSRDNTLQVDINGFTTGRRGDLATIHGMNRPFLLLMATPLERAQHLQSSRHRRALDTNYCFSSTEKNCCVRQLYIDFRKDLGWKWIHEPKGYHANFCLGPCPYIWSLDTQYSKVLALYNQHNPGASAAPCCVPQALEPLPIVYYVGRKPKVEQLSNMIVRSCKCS
Just the number in nM, nothing appended.

### Prompt Give reported IC50, reporter cell assay value for Ab21 (antibody, V domains shown) VH: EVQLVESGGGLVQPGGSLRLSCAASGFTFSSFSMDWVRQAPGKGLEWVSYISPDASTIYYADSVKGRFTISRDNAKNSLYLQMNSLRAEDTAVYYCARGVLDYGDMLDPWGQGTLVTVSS VL: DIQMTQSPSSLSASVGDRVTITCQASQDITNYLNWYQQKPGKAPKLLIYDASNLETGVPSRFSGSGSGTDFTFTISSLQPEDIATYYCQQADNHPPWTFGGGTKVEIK
### Response 0.4

### Prompt Name the recorded IC50, reporter cell assay of the item Ab5 (antibody, V domains shown) VH: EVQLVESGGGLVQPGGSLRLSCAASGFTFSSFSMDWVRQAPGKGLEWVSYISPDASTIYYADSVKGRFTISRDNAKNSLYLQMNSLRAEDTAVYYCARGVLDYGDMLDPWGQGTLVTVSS VL: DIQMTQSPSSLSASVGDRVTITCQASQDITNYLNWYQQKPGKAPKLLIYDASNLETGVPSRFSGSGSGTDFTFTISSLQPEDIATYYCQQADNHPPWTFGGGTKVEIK in your answer.
### Response 0.1

### Prompt Indicate its recorded IC50, reporter cell assay; the binder in question is Ab33 (antibody, V domains shown) VH: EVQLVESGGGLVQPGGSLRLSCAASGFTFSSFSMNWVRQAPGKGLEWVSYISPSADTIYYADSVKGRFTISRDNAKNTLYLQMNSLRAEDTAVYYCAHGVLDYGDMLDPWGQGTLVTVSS VL: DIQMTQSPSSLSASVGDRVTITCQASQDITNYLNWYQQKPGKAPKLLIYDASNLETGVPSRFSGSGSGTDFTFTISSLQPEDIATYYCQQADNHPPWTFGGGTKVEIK
### Response 0.2
